The reported numbers originate from ChEMBL document CHEMBL5543096.

TEST DESCRIPTION: Tmax in Sprague-Dawley rat at 0.3 mg/kg,iv measured at 0.05 to 24 hrs of post administration by LC-MS/MS analysis
Assay type: ADME, organism-based
EXPERIMENTAL CONTEXT: in vivo, time 0.05-24 hrs
METRIC: Tmax (min)
Quick note: give the figure in min, leave out the unit.

Recorded result, `CN1[C@@H]2C[C@@H](OC(=O)[C@@](F)(CO)c3ccccc3)C[C@H]1[C@@H]1O[C@@H]12` , Tmax: 3
